# Test Protocol: Cytotoxicity against human A549 cells after 24 hrs at 320 uM by MTT assay relative to control
# Type: cell-based
# Assay Context: read-out: T/C
Measured Parameter: viability at 24 h, 320 µM (%)
Numeric only. Scale: %

Incoming: # lookup: viability at 24 h, 320 µM of C=C1C(=O)C=C[C@]2(C)CC[C@H]3C(=C)C(=O)O[C@H]3[C@@H]12 [DEHYDROBRACHYLAENOLIDE]
Outgoing: 28.6

---

# System: A549
# Test Protocol: Cytotoxicity against human A549 cells after 24 hrs by MTT assay
# Assay type: cell-based
# Assay Context: A549, 24 h
Measured Parameter: pIC50
Hey, just a heads up that pIC50 is the negative log base 10 of the concentration in molar.

Incoming: What pIC50 value was documented for this compound, C=C1C(=O)C=C[C@]2(C)CC[C@H]3C(=C)C(=O)O[C@H]3[C@@H]12 [DEHYDROBRACHYLAENOLIDE] ?
Outgoing: 4.26

---

# Test Protocol: Cytotoxicity against human A549 cells after 24 hrs at 100 uM by MTT assay relative to control
# Format: cell-based
# Assay Context: read-out: T/C
Measured Parameter: viability at 24 h, 100 µM (%)
Expressed in %, but write only the number.

Incoming: Reported viability at 24 h, 100 µM, molecule C=C1C(=O)C=C[C@]2(C)CC[C@H]3C(=C)C(=O)O[C@H]3[C@@H]12 [DEHYDROBRACHYLAENOLIDE] : ____
Outgoing: 29.3

---

# Test Protocol: Cytotoxicity against human A549 cells after 24 hrs at 1 uM by MTT assay relative to control
# Assay type: cell-based
# Assay Context: read-out: T/C
Measured Parameter: viability at 24 h, 1 µM (%)
Reply with just the number (in %).

Incoming: Entry under review: C=C1C(=O)C=C[C@]2(C)CC[C@H]3C(=C)C(=O)O[C@H]3[C@@H]12 [DEHYDROBRACHYLAENOLIDE] . Reported viability at 24 h, 1 µM?
Outgoing: 100

---

# Test Protocol: Cytotoxicity against human A549 cells after 24 hrs at 10 uM by MTT assay relative to control
# Assay type: cell-based
# Assay Context: read-out: T/C
Measured Parameter: viability at 24 h, 10 µM (%)
Quick reminder: number only, in %, skip the unit.

Incoming: Need viability at 24 h, 10 µM of C=C1C(=O)C=C[C@]2(C)CC[C@H]3C(=C)C(=O)O[C@H]3[C@@H]12 [DEHYDROBRACHYLAENOLIDE] , thanks.
Outgoing: 93.8

---

# Test Protocol: Cytotoxicity against human A549 cells after 24 hrs at 32 uM by MTT assay relative to control
# Format: cell-based
# Assay Context: read-out: T/C
Measured Parameter: viability at 24 h, 32 µM
Write the quantity with the unit trailing the number.

Incoming: Item C=C1C(=O)C=C[C@]2(C)CC[C@H]3C(=C)C(=O)O[C@H]3[C@@H]12 [DEHYDROBRACHYLAENOLIDE] has what recorded viability at 24 h, 32 µM?
Outgoing: 68.8%

---

# Test Protocol: Cytotoxicity against human A549 cells after 24 hrs at 1000 uM by MTT assay relative to control
# Assay type: cell-based
# Assay Context: read-out: T/C
Measured Parameter: viability at 24 h, 1000 µM
State the value with its unit after it.

Incoming: Sample C=C1C(=O)C=C[C@]2(C)CC[C@H]3C(=C)C(=O)O[C@H]3[C@@H]12 [DEHYDROBRACHYLAENOLIDE] — what was its viability at 24 h, 1000 µM?
Outgoing: 11.8%

The values you see were collected from ChEMBL document CHEMBL1159377.
